- Assayed Target: mMC1R (Mus musculus, UniProt Q01727)
- Sequence (Q01727 whole entry): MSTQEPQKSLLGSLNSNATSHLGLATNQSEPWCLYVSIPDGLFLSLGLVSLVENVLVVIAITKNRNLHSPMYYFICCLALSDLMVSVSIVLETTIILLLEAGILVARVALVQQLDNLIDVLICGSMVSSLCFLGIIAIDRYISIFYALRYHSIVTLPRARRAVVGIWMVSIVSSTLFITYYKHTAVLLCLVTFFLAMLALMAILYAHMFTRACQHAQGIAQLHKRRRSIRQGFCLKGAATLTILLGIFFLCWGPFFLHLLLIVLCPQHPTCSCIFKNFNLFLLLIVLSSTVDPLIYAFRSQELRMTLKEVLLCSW
- Experiment Summary: cAMP based functional bioassay (CRE/β-galactosidase reporter), agonist activity at mMC1R
- Applied Conditions: reported where receptor not activated to full activity
Value Kind: mMC1R Activity @ 10 μM (relative activity, percent) (%)

Some solved entries appear below for comparison.
Looking for the measured mMC1R Activity @ 10 μM (relative activity, percent) of CC(C)C[C@@H]1CNC(=N)N1C[C@@H]1CCCN1C[C@@H](Cc1ccccc1)N1C[C@@H]([C@@H](C)O)N(CC2CCC(C(C)(C)C)CC2)C1=N (stereo partly shown) , can you help?
58

What do we get for `CC(C)C[C@@H]1CNC(=N)N1C[C@@H]1CCCN1C[C@@H](Cc1ccccc1)N1C[C@@H]([C@@H](C)O)N(CC23CC4CC(CC(C4)C2)C3)C1=N` ?
41

What do we get for `CC(C)CCCN1C(=N)N([C@H](CC2CCCCC2)CN2CCC[C@H]2CN2C(=N)NC[C@H]2CC(C)C)C[C@H]1C(C)C` ?
50

What do we get for CC(C)C[C@@H]1CNC(=N)N1C[C@@H]1CCCN1C[C@@H](CC1CCCCC1)N1C[C@@H](C(C)C)N(CC2CCC(C(C)(C)C)CC2)C1=N (stereo partly shown) ?
54

What do we get for `CC(C)CCCN1C(=N)N([C@H](Cc2ccccc2)CN2CCC[C@H]2CN2C(=N)NC[C@H]2CC(C)C)C[C@H]1[C@@H](C)O` ?
62

A: CCC[C@@H]1CN([C@H](CC2CCCCC2)CN2CCC[C@H]2CN2C(=N)NC[C@H]2CC(C)C)C(=N)N1CC12CC3CC(CC(C3)C1)C2
B: CCC[C@@H]1CN([C@H](Cc2ccccc2)CN2CCC[C@H]2CN2C(=N)NC[C@H]2CC(C)C)C(=N)N1CC1CCC(C(C)(C)C)CC1 (stereo partly shown)
For the pair A and B , which member has the lower mMC1R Activity @ 10 μM (relative activity, percent) number? // return label of chosen record
B
(B: 38%, A: 70%)

FYI, the data here is from patent US11932628B2.
